Tested on: c-Abl (mouse);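 further: 11-residue human phosphosite peptides and single-mutation variants displayed on the E. coli surface, counted by deep sequencing, each peptide's frequency after selection divided by its frequency in the unselected input library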;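 further: frequency after pTyr selection over input frequency; kinase dosed for 20-30% of maximal phosphorylation in three min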
Test: phosphorylation enrichment, bacterial display (enrichment ratio); higher = better substrate or ligand; peptides without Tyr show the background
observed_property: phosphorylation enrichment

[
  {
    "residue_sequence": "KGFCGYSFDDI [TMEM230_Y110_R108C_YF]",
    "phosphorylation enrichment": 1.07
  },
  {
    "residue_sequence": "EGQKIYIDDNN [PIP4K2A_Y246]",
    "phosphorylation enrichment": 0.74
  },
  {
    "residue_sequence": "SLHPGYNFRFA [P2RX7_Y291_Y288H_YF]",
    "phosphorylation enrichment": 0.57
  },
  {
    "residue_sequence": "GCLSKYSGVFS [TUBGCP6_Y1624_V1621L]",
    "phosphorylation enrichment": 0.673
  },
  {
    "residue_sequence": "VTHKEYFIFLE [CAMKV_Y95_R92H]",
    "phosphorylation enrichment": 0.755
  }
]

Fill blank: measured phosphorylation enrichment of the sequence KEEEDYKEENN [BMS1_Y651] is ____.
0.75

Fill blank: measured phosphorylation enrichment of the sequence HLVLNYGVCVC [JAK2_Y613] is ____.
1.49

Fill blank: measured phosphorylation enrichment of the sequence LPSKDYAEVRR [HP_Y272_G276R] is ____.
1.75
